The following compounds are listed with their measured Population Healthy Nuclei (%) values.
Test system: U2OS
Test: Multiplex assay against U2OS
Assay type: toxicity, cell-based
Conditions: human, 24 h, 1 µM, compound concentration 1 uM, replicate 2
Put down the number, then write its unit next to it.

**Query** Consider the compound `Cc1noc(-c2ccc(-c3ccc(CC(=O)O)cc3)cc2)c1NC(=O)O[C@H](C)c1ccccc1Cl` and give its measured Population Healthy Nuclei (%).
**Result** 77%

**Query** Repeat with O=C(NCCN1CCC(n2c(=O)[nH]c3cc(Cl)ccc32)CC1)c1ccc(F)cc1 [HALOPEMIDE]
**Result** 72%

***
**Query** Consider the compound `Cc1cccc(NC(=O)CN2CCC(c3ccccn3)CC2)c1.Cl.Cl` and give its measured Population Healthy Nuclei (%).
**Result** 67%

**Query** Repeat with CC(=O)Nc1cccc2c1c(Sc1ccc(Cl)cc1)c(C)n2CC(=O)O [AZD1981]
**Result** 82%

**Query** Repeat with `COc1cccc2c1c(NS(=O)(=O)c1ccc(Cl)s1)nn2Cc1cccc(CNC(=O)C(C)(C)O)c1`
**Result** 66%

###

Test system: U2OS
Experiment: Multiplex assay against U2OS
Format: toxicity, cell-based
Details: human, 48 h, 10 µM, compound concentration 10 uM, replicate 1
The following molecules are listed with their measured Population Apoptotic (%) values.
Give your result in % as a bare value.

Below, 3 molecules whose answers are already recorded.
**Query** Consider the molecule `CN[C@@H](C)C(=O)N[C@H](C(=O)N1CCC[C@H]1C(=O)Nc1snnc1-c1ccccc1)C1CCCCC1` and give its measured Population Apoptotic (%).
**Result** 100

**Query** Repeat with Cl.N=C(N)NC(=O)Cc1c(Cl)cccc1Cl [GUANFACINE HYDROCHLORIDE]
**Result** 90

**Query** Repeat with Cc1sc2c(c1C)C(c1ccc(Cl)cc1)=N[C@@H](CC(=O)NCCCCCCCCNC(=O)COc1cccc3c1C(=O)N(C1CCC(=O)NC1=O)C3=O)c1nnc(C)n1-2 (stereo partly drawn)
**Result** 100

***
**Query** Consider the molecule COC[C@@H](c1ccc(C(F)(F)F)cc1)N1CCN(C2(C)CCN(C(=O)c3c(C)ncnc3C)CC2)C[C@@H]1C.O=C(O)/C=C\C(=O)O [VICRIVIROC MALEATE] and give its measured Population Apoptotic (%).
**Result** 80

**Query** Repeat with `NCCc1cn(S(=O)(=O)c2c(Cl)nc3sccn23)c2ccccc12.O=C(O)C(=O)O`
**Result** 92

**Query** Repeat with Cl.NCCc1ccc(O)c(O)c1 [DOPAMINE HYDROCHLORIDE]
**Result** 85

**Query** Repeat with `CN(C)C(=O)Cn1cc(-c2ccc(-c3cncc4ccccc34)cc2)cn1`
**Result** 74

**Query** Repeat with CCCCCC(O)/C=C/[C@H]1C(=O)CC(O)C1C/C=C\CCCC(=O)O (stereo partly drawn)
**Result** 89

###

Tested on: U2OS
Test: Multiplex assay against U2OS
Type: toxicity, cell-based
Settings: human, 48 h, 10 µM, compound concentration 10 uM, replicate 2
The following compounds are listed with their measured Population Fragmented Nuclei (%) values.
Give your result in % as a bare value.

Below, 4 compounds whose answers are already recorded.
**Query** Consider the compound Cc1c(CC(=O)O)c2cccnc2n1Cc1ccc(S(C)(=O)=O)cc1C(F)(F)F [FEVIPIPRANT] and give its measured Population Fragmented Nuclei (%).
**Result** 15

**Query** Repeat with CC(C)c1noc(N2CCC(COc3ccc(-c4ccc(S(C)(=O)=O)cc4)nc3)CC2)n1 [GSK-1292263]
**Result** 12

**Query** Repeat with `O=C(CCCc1ccccc1)Nc1nc2ccccc2c(=O)s1`
**Result** 15

**Query** Repeat with O=C(NCCN1CCC(n2c(=O)[nH]c3cc(Cl)ccc32)CC1)c1ccc(F)cc1 [HALOPEMIDE]
**Result** 13

For the next question, use this compound.
**Query** Consider the compound CCCCCC(O)/C=C/[C@H]1C(=O)CC(O)C1C/C=C\CCCC(=O)O (stereo not given in full) and give its measured Population Fragmented Nuclei (%).
**Result** 21

###

Test system: U2OS
Test: Multiplex assay against U2OS
Assay type: toxicity, cell-based
Settings: human, 48 h, 10 µM, compound concentration 10 uM, replicate 1
Reported Property: Total Cell Count
Lab note: jot the number down without any unit.

**Query** Consider the molecule `N#Cc1cc(F)cc(-c2nc(-c3ccc(F)cn3)no2)c1` and give its measured Total Cell Count.
**Result** 282

**Query** Repeat with `COc1cccc2c1c(NS(=O)(=O)c1ccc(Cl)s1)nn2Cc1cccc(CNC(=O)C(C)(C)O)c1`
**Result** 413

**Query** Repeat with `C[C@H](N)COC(=O)[C@@H](CCCCN)NC(=O)Cc1c(-c2ccc3ccccc3c2)[nH]c2c1ccc1ccccc12`
**Result** 505

**Query** Repeat with Cl.N=C(N)NC(=O)Cc1c(Cl)cccc1Cl [GUANFACINE HYDROCHLORIDE]
**Result** 440

***
**Query** Consider the molecule Cc1sc2c(c1C)C(c1ccc(Cl)cc1)=N[C@@H](CC(=O)NCCCCCCCCNC(=O)COc1cccc3c1C(=O)N(C1CCC(=O)NC1=O)C3=O)c1nnc(C)n1-2 (stereo partly drawn) and give its measured Total Cell Count.
**Result** 289

**Query** Repeat with `CCCCC(=O)N(Cc1ccc(-c2ccccc2-c2nnn[nH]2)cc1)[C@H](C(=O)O)C(C)C`
**Result** 347

###

Tested on: U2OS
Assay: Multiplex assay against U2OS
Format: toxicity, cell-based
Settings: human, 12 h, 10 µM, compound concentration 10 uM, replicate 2
Lab note: anything with Population Mitochondria Different-Phenotype (%) at or over 4% counts as condition met; the rest go in condition not met.

**Query** // inclusive: Population Mitochondria Different-Phenotype (%) at least 4%? input: `O=C(CCCc1ccccc1)Nc1nc2ccccc2c(=O)s1`
**Result** condition met

***
**Query** // inclusive: Population Mitochondria Different-Phenotype (%) at least 4%? input: `CC(C)c1noc(N2CCC(COc3ccc(-c4ccc(S(C)(=O)=O)cc4)nc3)CC2)n1`
**Result** condition met

**Query** Repeat with `CN[C@@H](C)C(=O)N[C@H](C(=O)N1CCC[C@H]1C(=O)Nc1snnc1-c1ccccc1)C1CCCCC1`
**Result** condition met

**Query** Repeat with `Cc1cnc(-c2cc(N3CCN(C(=O)CCS(C)(=O)=O)CC3)ncc2Cl)c(C)c1`
**Result** condition met

**Query** Repeat with O=C(NCCN1CCC(n2c(=O)[nH]c3cc(Cl)ccc32)CC1)c1ccc(F)cc1 [HALOPEMIDE]
**Result** condition met

**Query** Repeat with `CN(C)C(=O)Cn1cc(-c2ccc(-c3cncc4ccccc34)cc2)cn1`
**Result** condition met

**Query** Repeat with `Cc1cccc(NC(=O)CN2CCC(c3ccccn3)CC2)c1.Cl.Cl`
**Result** condition met

**Query** Repeat with `CC(=O)Nc1cccc2c1c(Sc1ccc(Cl)cc1)c(C)n2CC(=O)O`
**Result** condition not met

**Query** Repeat with `Cc1c(CC(=O)O)c2cccnc2n1Cc1ccc(S(C)(=O)=O)cc1C(F)(F)F`
**Result** condition not met

###

Test system: Fibroblast
Test: Multiplex assay against human fibroblast
Format: toxicity, cell-based
Conditions: 24 h, 10 µM, compound concentration 10 uM, replicate 1
The following compounds are listed with their measured Population Mitotic Cells (%) values.
Give your result in % as a bare value.

**Query** Consider the compound `CC(/C=C1\SC(=S)N(CCCC(=O)Nc2ccc(C(=O)O)c(O)c2)C1=O)=C\c1ccccc1` and give its measured Population Mitotic Cells (%).
**Result** 33

***
**Query** Consider the compound `Cc1cccc(NC(=O)CN2CCC(c3ccccn3)CC2)c1.Cl.Cl` and give its measured Population Mitotic Cells (%).
**Result** 35

**Query** Repeat with `CC[C@@H](C)Nc1nc(C)nc2c(-c3ccc(OC)nc3C)c(C)nn12`
**Result** 62

**Query** Repeat with Cc1sc2c(c1C)C(c1ccc(Cl)cc1)=N[C@@H](CC(=O)NCCCCCCCCNC(=O)COc1cccc3c1C(=O)N(C1CCC(=O)NC1=O)C3=O)c1nnc(C)n1-2 (stereo partly drawn)
**Result** 32

**Query** Repeat with `CCCCC(=O)N(Cc1ccc(-c2ccccc2-c2nnn[nH]2)cc1)[C@H](C(=O)O)C(C)C`
**Result** 51

###

The following molecules are listed with their measured Population Healthy Nuclei (%) values.
Test system: Fibroblast
Assay: Multiplex assay against human fibroblast
Type: toxicity, cell-based
Details: 24 h, 10 µM, compound concentration 10 uM, replicate 2
Give your result in % as a bare value.

Below, 4 molecules whose answers are already recorded.
**Query** Consider the molecule `N#Cc1cc(F)cc(-c2nc(-c3ccc(F)cn3)no2)c1` and give its measured Population Healthy Nuclei (%).
**Result** 33

**Query** Repeat with `Cc1onc(-c2ccccc2Cl)c1C(=O)N(C)c1ccc(Cl)cc1`
**Result** 55

**Query** Repeat with Cc1sc2c(c1C)C(c1ccc(Cl)cc1)=N[C@@H](CC(=O)NCCCCCCCCNC(=O)COc1cccc3c1C(=O)N(C1CCC(=O)NC1=O)C3=O)c1nnc(C)n1-2 (stereo partly drawn)
**Result** 32

**Query** Repeat with O=C(NCCN1CCC(n2c(=O)[nH]c3cc(Cl)ccc32)CC1)c1ccc(F)cc1 [HALOPEMIDE]
**Result** 38

For the next question, use this molecule.
**Query** Consider the molecule `CC(C)c1noc(N2CCC(COc3ccc(-c4ccc(S(C)(=O)=O)cc4)nc3)CC2)n1` and give its measured Population Healthy Nuclei (%).
**Result** 55

Reference for the values: ChEMBL document CHEMBL5058577
